biological target: IMP-1 (Serratia marcescens, UniProt P52699); assay: Enzyme activity: determination of IC50, fluorescence assay with CCF2-FA substrate; type: biochemical; conditions: IMP-1 enzyme 2 pM, CCF2-FA 1.25 μM, 2 hours at 25° C.; read-out: IMP1 IC50
Sequence (P52699 19-246, looked up, species assumed): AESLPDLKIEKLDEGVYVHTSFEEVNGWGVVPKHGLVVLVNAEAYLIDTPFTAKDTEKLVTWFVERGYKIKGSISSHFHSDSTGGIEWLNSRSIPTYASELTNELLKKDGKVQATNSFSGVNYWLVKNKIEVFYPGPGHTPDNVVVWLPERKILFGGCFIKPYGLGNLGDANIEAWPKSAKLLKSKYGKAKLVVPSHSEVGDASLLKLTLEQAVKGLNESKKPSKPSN
quantity measured: pIC50
One number for each entry, as −log10 of the molar value.

CC(C)C[C@H](C(=O)O)[C@H](Cc1ccc(N2CC(S(C)(=O)=O)C2)nc1)c1nnn[nH]1 [Example 335]: 7.25
CC(C[C@H](C(=O)O)[C@H](Cc1ccc(N)nc1)c1nnn[nH]1)c1ccccc1 (some centres unmarked) [Example 404]: 6.21
CCC[C@H](C(=O)O)[C@H](Cc1ccc(C(=O)NCCO)cc1)c1nnn[nH]1 [Example 280]: 6.06
CC(C)C[C@H](C(=O)O)[C@H](Cc1ccc(N2CCC(O)C2)nc1)c1nnn[nH]1 (some centres unmarked) [Example 313]: 6.44
CC(C)C[C@H](C(=O)O)[C@H](Cc1ccc(N2CCC(CO)CC2)nc1)c1nnn[nH]1 [Example 314]: 6.72
CCC[C@H](C(=O)O)[C@H](Cc1ccc(C2CCN(C(=N)N)CC2)cc1)c1nnn[nH]1 [Example 296]: 6.74

Go through the list and state pIC50 for each entry.
1. CCC[C@H](C(=O)O)[C@H](Cc1ccc(C2CCN(C(=N)N)C2)cc1)c1nnn[nH]1 (some centres unmarked) [Example 414]
2. CCC[C@H](C(=O)O)[C@H](Cc1cccc(-c2ccc(N)nc2)c1)c1nn[nH]n1 [Example 342]

A:
1: 6.67; 2: 6.77

----------
biological target: NDM-1 (Klebsiella pneumoniae, UniProt C7C422); experiment: Enzyme activity: determination of IC50, fluorescence assay with CCF2-FA substrate; assay type: biochemical; details: NDM-1 enzyme 1 pM, CCF2-FA 1.25 μM, 2 hours at 25° C.; read-out: NDM1 IC50
Sequence (C7C422 29-270, looked up, species assumed): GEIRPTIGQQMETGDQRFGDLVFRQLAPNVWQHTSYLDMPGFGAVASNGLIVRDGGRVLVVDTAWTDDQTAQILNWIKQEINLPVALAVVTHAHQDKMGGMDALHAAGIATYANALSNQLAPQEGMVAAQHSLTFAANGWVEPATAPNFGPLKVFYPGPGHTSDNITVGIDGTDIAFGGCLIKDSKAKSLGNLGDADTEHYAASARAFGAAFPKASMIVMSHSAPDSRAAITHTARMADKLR
pIC50: −log10 of the molar value.
Everything with pIC50 lower than 7 is False; everything else, including exactly 7, is True.

The following molecules have reported results that may help.
CC(C)C[C@H](C(=O)O)[C@H](Cc1ccc(Oc2ccnc(N3CCNCC3)c2)nc1)c1nn[nH]n1: True
CCC[C@H](C(=O)O)[C@H](Cc1ccc(C2CCNCC2)nc1)c1nnn[nH]1: False

Q: Identify whether the reported pIC50 of the following molecule is 7 or greater: CCC[C@H](C(=O)O)[C@H](Cc1ccc(C2CCN(C=N)C2)nc1)c1nnn[nH]1 (some centres unmarked)
A: False

----------
target: VIM-1 (Pseudomonas aeruginosa, UniProt A0A0F7KYQ8); assay: Enzyme activity: determination of IC50, fluorescence assay with CCF2-FA substrate; type: biochemical; details: VIM-1 enzyme 30 pM, CCF2-FA 1.25 μM, 2 hours at 25° C.; read-out: VIM1 IC50
Consider the cut-off 20 nM. If the recorded IC50 is strictly smaller, the label is t; if not, the label is f.

Worked cases, answers included:
CC(C)C[C@H](C(=O)O)[C@H](Cc1ccc(NC2CCNC2)nc1)c1nnn[nH]1 (stereo partly drawn) [Example 321]: t
CCC[C@H](C(=O)O)[C@H](Cc1cccc(-c2cccc(C3CCCNC3)c2)c1)c1nn[nH]n1 (stereo partly drawn) [Example 345]: t
CCC[C@H](C(=O)O)[C@H](Cc1cccc(-c2cccc(C(N)=O)c2)c1)c1nn[nH]n1 [Example 341]: t
CCC[C@H](C(=O)O)[C@H](Cc1cccc(N2CC[C@@H](N)C2)c1)c1nn[nH]n1 [Example 364]: t
CC(C)C[C@H](C(=O)O)[C@H](Cc1ccc(NCCC(N)C(F)(F)F)nc1)c1nnn[nH]1 (stereo partly drawn) [Example 320]: t
CCC[C@H](C(=O)O)[C@H](Cc1cccc(-c2ccc(C(N)=O)cc2)c1)c1nn[nH]n1 [Example 351]: t
CCC[C@H](C(=O)[O-])[C@H](Cc1ccc(C2CC[N+](C)(C)CC2)cc1)c1nnn[nH]1 [Example 294]: f
CC(C)C[C@H](C(=O)O)[C@H](Cc1ccc(N2CC(C(C)(C)O)C2)nc1)c1nnn[nH]1 [Example 331]: f

Q: Confirm or reject: IC50 of CCC[C@H](C(=O)O)[C@H](Cc1cnc(SC)nc1)c1nnn[nH]1 [Example 285] lies strictly below 20 nM
A: t

Q: Determine if CCC[C@H](C(=O)O)[C@H](Cc1cccc(N2CC[C@H](N)C2)c1)c1nn[nH]n1 [Example 369] shows IC50 strictly lower than 20 nM.
A: t

Q: State whether 20 nM exceeds IC50 recorded for CC(C)C[C@H](C(=O)O)[C@H](Cc1ccc(Oc2cccc3c2CCNC3)nc1)c1nn[nH]n1 [Example 388] .
A: t
